Assay: reduced calcium signal in Ga16 cells – fluorescence, CHO-Ga16 cells, counter-screen for TAAR1 agonist project (AID 651952)
Settings: CHO-Ga16 ATP-induced calcium, Fluo-8 fluorescence; at 3 µM
In all, about 2,400 compounds went through this assay and about 940 (39%) were called active.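 Rule for the calls: active = inhibition above the plate's mean compound inhibition plus 3 SD, computed per plate (cut at about 22% in these data); inactive = the rest.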 The list is a sample of the results.
Respond only with the outcome that fits, drawn from Y = active, N = inactive

**Query** Outcome logged for `N#Cc1ccc(OCCCN2CCC(C(O)(c3ccccc3)c3ccccc3)CC2)c(F)c1` in this assay:
**Result** Y

**Query** Assay outcome for `CN(C)c1ccc(/C=C2\NC(=S)N(Cc3ccccc3)C2=O)cc1` : what was it?
**Result** Y

**Query** Could you please tell me the result logged for `S=C(Nc1ccc(Br)cc1)NC1CCN(Cc2ccccc2)CC1` in this assay?
**Result** Y

**Query** Given COc1cc(OC)cc(C(=O)N[C@H](C(=O)OCC(=O)NC(C)c2ccccc2)C(C)C)c1 (stereo not given in full) , state the outcome it received in this test.
**Result** N

**Query** Field: outcome | Entry: `Cc1cc(C)c2cc(C#N)c(N3CCNCC3)nc2c1`
**Result** N

**Query** Dear colleague, could you share the recorded outcome for `Cc1cc2nc3c(=O)[nH]c(=O)nc-3n(C[C@H](O)[C@H](O)[C@H](O)CO)c2cc1C` when you have a moment?
**Result** Y

**Query** How did this test come out for CCCC1CCC(=NNC(=S)NCCc2ccccc2)CC1 (stereo not given) ?
**Result** N

**Query** Lab log entry: `Nc1c(NCCc2ccccc2)c2ccccc2oc1=O` — outcome as called in the assay?
**Result** N

**Query** What outcome does the record of this test show for `O=c1cnnc(Nc2ccccc2)[nH]1` ?
**Result** N

**Query** Field: outcome | Entry: `CCCSc1nc2c(c(=O)n(C)c(=O)n2C)n1Cc1ccc(C)cc1`
**Result** N

---

Assay: reduced calcium signal in Ga16 cells – fluorescence, CHO-Ga16 cells, counter-screen for TAAR1 agonist project (AID 651952)
Details: CHO-Ga16 ATP-induced calcium, Fluo-8 fluorescence; at 3 µM; active compounds read high
Hit rate of the full screen: of about 2,400 compounds, about 940 (39%) were called active. A selection follows.
Output met for inhibition not less than 30%; output not met otherwise.

**Query** Given `O=C(Nc1ccccc1)Nc1nnc(COc2ccccc2F)s1` , state whether its inhibition is at least 30%.
**Result** not met

**Query** Reported inhibition reaches at least 30% for O=C(O)C1C2C=CC(O2)C1C(=O)NCCc1cccc(Cl)c1 (stereo unspecified) ?
**Result** not met

**Query** # check: inhibition of CC(Oc1ccc(Cl)cc1)C(=O)OCC(=O)Nc1ncc(Cl)cc1Cl (stereo unspecified) is greater than or equal to 30%
**Result** not met

**Query** Quick check, inhibition >= 30%? `Cc1ccccc1NC(=S)NC(=O)Cc1ccc(Cl)cc1`
**Result** met

**Query** Does the reported inhibition for `Oc1ccc2ccc3cccc[n+]3c2c1` fall at or above the 30% mark?
**Result** met

**Query** API: above_or_equal(metric=inhibition, cutoff=30%) for item `Cc1ccc(NC(=O)CCN2CCc3ccccc3C2)cc1`
**Result** not met

---

Experiment: reduced calcium signal in Ga16 cells – fluorescence, CHO-Ga16 cells, counter-screen for TAAR1 agonist project (AID 651952)
Conditions: CHO-Ga16 ATP-induced calcium, Fluo-8 fluorescence; at 3 µM
About 940 (39%) of roughly 2,400 compounds were called active.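 How the source made its calls: active means inhibition above the plate's mean compound inhibition plus 3 SD, computed per plate (cut at about 22% in these data); inactive means the rest.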 A selection follows.
Your response should consist of one outcome taken from t for active, f for inactive

**Query** Assay outcome for `Nc1nonc1-n1nnc(C(=O)N/N=C/c2ccc(Cl)cc2)c1-c1ccc2c(c1)OCO2` : what was it?
**Result** f

**Query** Lab log entry: `O=C(c1noc2c1CCCC2)N1CCc2ccccc2C1` — outcome as called in the assay?
**Result** f

**Query** Answer briefly: the call reported for `CN(C(=O)CN(CCO)CC(=O)N(C)C(C)(C)Cc1ccccc1)C(C)(C)Cc1ccccc1` in this assay.
**Result** t

**Query** Would you mind telling me which call this test gave `COc1cc(OC)c(-n2cc(-c3ccc(Cl)cc3)[nH]c2=O)cc1Cl` ?
**Result** t

**Query** What call does the record list for `COc1ccc2cc(-c3[nH]ncc3CNCCn3nc(C)cc3C)ccc2c1` ?
**Result** f

**Query** So what was the verdict on c1ccc2c(c1)OCC(CNc1ncnc3nc[nH]c13)O2 (stereo not given) in this test?
**Result** t

**Query** Assay result, entry `C#CCOc1ccc(/C=C2/C(=O)NN(c3ccccc3)C2=O)cc1OC` — outcome?
**Result** f

**Query** How was `Cc1ccc(Sc2cc(N3CCOCC3)nc(-c3ccccc3)n2)cc1` classified in this test?
**Result** f

**Query** Entry CCC(c1nnnn1Cc1ccco1)N(CCc1ccccc1)Cc1cc2cccc(C)c2[nH]c1=O (stereo not given) : call = ?
**Result** f

**Query** Check the results log: what was the call for `COc1ccc(Cl)cc1C(=O)NNC(=S)NC(=O)/C=C/c1ccco1` ?
**Result** t
